system: SNB-78 CNS; assay: NCI tumour cell line growth inhibition, 48 h
Observable: TGI

{"Compound": "CC(C)NCCNC(=O)c1ccccc1Nc1c(Cl)cccc1Cl", "TGI": "31.5 µM"}
{"Compound": "Cc1cccc(C(C)(C)C)c1NC(=O)C(=O)C(C(=O)/C=C\\c1ccccc1)C1OC(=O)c2ccccc21 (centres undefined)", "TGI": "> 100 µM"}
{"Compound": "C=C1[C@@H](C)[C@H]2[C@H](Cc3ccccc3)NC(=O)[C@]23OC(=O)/C=C/[C@H](O)CCC[C@@H](C)C/C=C/[C@H]3[C@@H]1O", "TGI": "15.2 µM"}
{"Compound": "CC(=O)Nc1ccc(C(=O)N2N=C(C)/C(=C/c3ccccc3O)C2=O)cc1", "TGI": "> 100 µM"}
{"Compound": "CC(=O)CCCCCCCCCCCC[C@@H]1CC[C@H](C)[C@H](O)N1", "TGI": "> 100 µM"}

Please give TGI for each item listed below.
1. O=C(NCCNCCO)N/N=C/c1ccccc1
2. CCCCCCCCCCC/C(=N/O)c1ccc(O)c2ncccc12
3. CCCCCCCCCCCCCCCCCC(=O)OCC(CN(C)CCN(C)C)OC(=O)CCCCCCCCCCCCCCCCC (centres undefined)

Response line:
> 100 µM
> 100 µM
> 100 µM

Prompt line: Report measured TGI; entry is COc1c(O)c2c(c3cc(C(=O)N4CCc5c4c(O)c(OC)c4[nH]c(C(=O)N6CC7CC78C6=CC(=O)c6[nH]cc(C)c68)cc54)[nH]c13)CCN2C(N)=O (centres undefined)
Response line: 0.0534 µg/mL

---

system: M19-MEL melanoma; assay: NCI tumour cell line growth inhibition, 48 h
Observable: TGI

Respectfully, I request TGI for each entry included below.
1. CCCN(CCCCC(NC(C)=O)C(=O)NCc1ccccc1)C(=O)NCCCl (centres undefined)
2. Cc1cccc(-c2nc3c(C(=O)NCCN(C)C)cccc3[nH]2)c1

Response line:
["> 100 µM", "3.03 µM"]

Your task in this section: give TGI for each listed record.
1. O=P1(N(CCCl)CCCl)NCCCO1 (centres undefined)
2. Cc1ccccc1-c1c(N)nc(NC#N)nc1C(=O)Nc1ccccc1

Response line:
1. > 250 µM
2. > 100 µM

Please state, for each entry, its recorded TGI.
1. N#CC(C(=O)/C(=N/N)C(C#N)c1ccc(Cl)cc1)c1ccc(Cl)cc1 (centres undefined)
2. CCN1C2=NC(=O)N(C)C(=O)C2(Cl)C(C(SC)S(=O)(=O)c2ccc(C)cc2)c2ccccc21 (centres undefined)
3. Cc1cc(=O)[nH]c(NN2C(Cl)C(=O)C2c2ccco2)n1 (centres undefined)
4. CC(C)N(C(=O)C12C3C4C5(C#N)C3C1(I)C5C42I)C(C)C (centres undefined)
5. COc1ccc(C=C2C(=O)OC(C)(C)OC2=O)cc1OC

Response line:
["> 100 µM", "61.5 µM", "> 100 µM", "> 100 µM", "> 100 µM"]

---

tested on: HT29 colon; assay: NCI tumour cell line growth inhibition, 48 h
Answer each item with its documented TGI.

For every record below, what is its TGI?
1. CCCCn1c2cc(OCc3cn(-c4ccc(Cl)cc4)nn3)ccc2c2ccnc(C)c21
2. C/C(=N/S(=O)(=O)c1ccc(Cl)c(Cl)c1)OCC(C)(C)C
3. Cc1cc(C)c(C#N)c(SC(=S)NC(=O)c2ccccc2)n1
4. NNc1nnc(-c2ccccc2)nc1Cc1ccccc1

Response line:
1. > 33.3 µM
2. > 100 µM
3. > 100 µM
4. > 100 µM

---

system: MCF7 breast; assay: NCI tumour cell line growth inhibition, 48 h
Observable: TGI

{"Molecule": "COc1c(O)c2c(c3cc(C(=O)N4CCc5c4c(O)c(OC)c4[nH]c(C(=O)N6CC7CC78C6=CC(=O)c6[nH]cc(C)c68)cc54)[nH]c13)CCN2C(N)=O (stereo not drawn)", "Experimental system": "MCF7 breast", "TGI": "0.397 µM"}
{"Molecule": "CC(=O)NC1C(OCc2ccccc2)OC(CO)C(O)C1OCC(=O)N[C@@H](C)C(=O)N[C@H](CCC(=O)NCCCCNc1c2ccccc2nc2cccc([N+](=O)[O-])c12)C(N)=O (stereo partly drawn)", "Experimental system": "MCF7 breast", "TGI": "32 µM"}
{"Molecule": "O=Cc1c(-c2cc(O)ccc2O)nc2sccn12", "Experimental system": "MCF7 breast", "TGI": "> 100 µM"}
{"Molecule": "CN(c1ccc(Cl)cc1)S(=O)(=O)c1ccccc1", "Experimental system": "MCF7 breast", "TGI": "> 100 µM"}
{"Molecule": "c1ccc2c(c1)ccc1nc(-c3ccc4c(c3)OCO4)c3c(c12)CCC3", "Experimental system": "MCF7 breast", "TGI": "> 100 µM"}
{"Molecule": "Nc1ccccc1C#C/C=C\\C#Cc1ccccc1C(F)(F)F", "Experimental system": "MCF7 breast", "TGI": "> 47.5 µM"}
{"Molecule": "C=C(C)[C@@H]1CC[C@]2(C(=O)OC3OC(COC4OC(CO)C(OC5OC(C)C(O)C(O)C5O)C(O)C4O)C(O)C(O)C3O)CC[C@]3(C)[C@H](CC[C@@H]4[C@@]5(C)CC[C@H](O)[C@@](C)(CO)[C@@H]5CC[C@]43C)[C@@H]12 (stereo partly drawn)", "Experimental system": "MCF7 breast", "TGI": "> 10 µM"}
{"Molecule": "CC1=C([Se]CC(OC(=O)CC[Se]c2ccccc2)C(=O)NCCCCCC(=O)OCc2ccccc2)C(=O)c2ccccc2C1=O (stereo not drawn)", "Experimental system": "MCF7 breast", "TGI": "12.7 µM"}

Value sought for every listed molecule: TGI.
1. CCCCNC(=S)Nc1nc(C(=O)NNC(=S)NCc2ccccc2)cs1
2. COCCn1cc(-c2csc(-c3c[nH]c4ccccc34)n2)c2cccnc21
3. Clc1ccc(Cc2nc3ccccc3nc2-c2cccc(Cl)c2)cc1
4. O=c1cnc2cc3ccccc3cc2[nH]1
5. CC(=O)OCC1(CNc2nc(N)ncc2C#N)CC(CCc2ccccc2)C1 (stereo not drawn)
6. Cc1cc2nc3c(N)nn(CCN(C)C)c3nc2cc1C
7. CCCC[C@H]1C(=O)O[C@H](C)[C@H](NC(=O)c2cccc(NC=O)c2O)C(=O)O[C@@H](C)[C@@H]1OC(=O)CC(C)C

Response line:
> 100 µM
> 100 µM
13 µM
> 100 µM
> 100 µM
> 100 µM
25.8 µM

For each of the molecules below, state TGI.
1. COc1ccc(OC)c(-c2cn3c(n2)sc2ccccc23)c1
2. COc1c(-c2ccc(F)cc2)oc2cc(O)cc(O)c2c1=O

Response line:
1. > 100 µM
2. > 100 µM

Prompt line: # return recorded TGI for entry COc1ccc(-n2c(SCc3cc(OC)c(OC)c(OC)c3)nc3ccc(C)cc3c2=O)c(OC)c1
Response line: > 100 µM

---

tested on: T-47D breast; assay: NCI tumour cell line growth inhibition, 48 h
Where a SMILES comes first, the peptide text is derived from it.
Observable: TGI

{"Compound": "Nc1ccc2c(SCCSc3c4ccccc4nc4cc(N)ccc34)c3ccccc3nc2c1", "TGI": "> 100 µM"}
{"Compound": "CCCCNC(=S)Nc1nc(C(=O)NNC(=S)NCc2ccccc2)cs1", "TGI": "59.3 µM"}
{"Compound": "CCC(C)C(NC(=O)C1CCCN1)C(=O)NC(C(=O)NCC(=O)NC(CC(N)=O)C(=O)NC(CC(C)C)C(=O)NC(CC(C)C)C(=O)NC(CCCCN)C(N)=O)C(C)C (stereo not given) (H-PIVGNLLK-NH2; configuration not given here)", "TGI": "> 75 µM"}
{"Compound": "CC(C)CCCC(C)[C@H]1CC[C@H]2NCCCC[C@]12C (stereo not given in full)", "TGI": "8.93 µM"}

Below is a list of compounds. For each, state its recorded TGI.
1. CCC1(O)CC(O)c2c(O)c3c(c(O)c2C1C(=O)OC)C(=O)c1cccc(O)c1C3=O (stereo not given)
2. COc1ccc(Nc2nc(NNC(=O)Cc3ccccc3)nc(NNC(=O)c3ccncc3)n2)cc1
3. C=C1CN=C(Nc2ccc(F)cc2F)S1
4. Cc1cn(C2CC(SCCO)C(CO)O2)c(=O)[nH]c1=O (stereo not given)
5. CN(C)CCCn1c2c(c3cnccc3c1=O)C(=O)c1ccccc1-2
6. COc1ccc(C[C@H]2COC(=O)[C@@H]2Cc2ccccc2)cc1OC

Response line:
["32.8 µM", "> 10 µM", "> 100 µM", "> 100 µM", "6.99 µM", "> 100 µM"]

---

tested on: SNB-19 CNS; test: NCI tumour cell line growth inhibition, 48 h
Observable: TGI

The following molecules have reported results that may help.
{"Molecule": "O=P1(N(CCCl)CCCl)NCCCO1 (configuration not stated)", "Value reported": "> 250 µM"}
{"Molecule": "Oc1ccc(/C=N\\Nc2ccccn2)c(O)c1", "Value reported": "> 100 µM"}
{"Molecule": "CCCCN(CCCC)C1=Nc2ccccc2-n2c(nnc2C(=O)OCC)C1", "Value reported": "> 100 µM"}

# per-item lookup of TGI; items listed below
1. CN1CCCC(OC(=O)c2cc3cc(CCl)ccc3oc2=O)C1 (configuration not stated)
2. O=C1c2ccccc2C2(c3ccc(Cl)cc3)N[C@@H]3CCCC[C@@H]3N12 (some centres not stated)
3. Cc1cc(=O)[nH]c(NN2C(Cl)C(=O)C2c2ccco2)n1 (configuration not stated)
4. CCOC(=O)COC1=Nc2cc(OC)c(OC)c3nc(Cl)cc(c23)C1=O

Response line:
1: > 100 µM; 2: > 100 µM; 3: > 100 µM; 4: 22.1 µM

Batch of 2 molecules: report TGI for each.
1. CCN(CC)c1ccc(/C=C\c2cc(C)c3cc(C)ccc3n2)cc1
2. CC1Cc2c(cc(N)nc2Br)NC1=O (configuration not stated)

Response line:
1. > 100 µM
2. > 100 µM
